The reported measurements were obtained from the supplement of paper PMC3334620.

# System Name: Yap3 (UniProt P38749)
# Sequence: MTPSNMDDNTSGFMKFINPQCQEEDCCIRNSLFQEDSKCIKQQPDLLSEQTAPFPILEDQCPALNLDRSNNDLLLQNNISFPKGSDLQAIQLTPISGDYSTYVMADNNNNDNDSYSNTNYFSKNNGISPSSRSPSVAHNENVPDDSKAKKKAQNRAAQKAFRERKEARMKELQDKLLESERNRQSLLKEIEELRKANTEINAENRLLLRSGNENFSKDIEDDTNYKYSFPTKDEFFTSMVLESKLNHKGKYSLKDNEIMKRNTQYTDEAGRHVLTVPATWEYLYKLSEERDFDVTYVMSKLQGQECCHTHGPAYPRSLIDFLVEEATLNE
# Assay: PBM E-score (8-mer binding enrichment) (E-score (-0.5 to 0.5)); higher = stronger / more preferred TF binding
# Condition Summary: protein concentration: 100 nM; construct: GST-full length
Over roughly 33,000 sequences, “E-score (-0.5 to 0.5)” has its median near -0.0034; the highest 2% begin near 0.25. The full list was thinned out, with the highest values kept by preference.
# class assignment by measured PBM E-score: low interval (below 0.08), middle interval (0.08 to below 0.2), high interval (0.2 or more)

Here are 2 sequences together with their reported answers.
1) AGAATTTA : high interval
2) AGAATTTC : low interval

Q: Which category does the recorded PBM E-score put "GAACCAAA" in?
A: low interval

Q: Which category does the recorded PBM E-score put "CTTACTAA" in?
A: high interval

Q: Which category does the recorded PBM E-score put "AAAGTGTC" in?
A: low interval

Q: Which category does the recorded PBM E-score put "AAATTAAA" in?
A: high interval

Q: Which category does the recorded PBM E-score put "GGAAGGTA" in?
A: low interval

Q: Which category does the recorded PBM E-score put "CAGGTGGG" in?
A: low interval

Q: Which category does the recorded PBM E-score put "AGAAGGTA" in?
A: high interval

Q: Which category does the recorded PBM E-score put "ATATTAAC" in?
A: high interval

Q: Which category does the recorded PBM E-score put "CTTACTCA" in?
A: middle interval

Q: Which category does the recorded PBM E-score put "CTATTAAC" in?
A: middle interval

Q: Which category does the recorded PBM E-score put "ATCATATC" in?
A: middle interval

Q: Which category does the recorded PBM E-score put "AATCAGAA" in?
A: low interval

Q: Which category does the recorded PBM E-score put "CAAGCTAA" in?
A: low interval

Q: Which category does the recorded PBM E-score put "AGAAGGTG" in?
A: low interval

Q: Which category does the recorded PBM E-score put "GATTTTCA" in?
A: middle interval

Q: Which category does the recorded PBM E-score put "ATAATTTG" in?
A: high interval

Q: Which category does the recorded PBM E-score put "AGAATAAG" in?
A: middle interval

Q: Which category does the recorded PBM E-score put "AAAGAACC" in?
A: low interval
